test system: Liver microsomes; assay: Intrinsic clearance in rat liver microsomes assessed per gram of liver at 2.5 uM after 20 mins; assay type: ADME, Microsome
Result type: CLint (mL/min/g)

Examples with answers:
| Compound | Result type | Number |
| --- | --- | --- |
| COc1cccc2c1-c1ccccc1N(S(=O)(=O)c1ccc(Cl)c(Cl)c1)C2CC(=O)NCCc1ccc(C2=NCCN2)cc1 (stereo not given) | CLint | 2.6 |
| O=C(CC1CCc2ccccc2N1S(=O)(=O)c1ccc(Cl)c(Cl)c1)NCCc1ccc(C2=NCCN2)cc1 (stereo not given) | CLint | 2.6 |
| O=C(CC1c2cc(F)ccc2-c2ccccc2N1S(=O)(=O)c1ccc(Cl)c(Cl)c1)NCCc1ccc(C2=NCCN2)cc1 (stereo not given) | CLint | 1.6 |
| O=C(CC1c2ccccc2-c2ccccc2N1S(=O)(=O)c1ccc(Cl)c(Cl)c1)NCCc1ccc(C2=NCCN2)cc1 (stereo not given) | CLint | 2.5 |
| O=C(CC1c2ccccc2CCN1S(=O)(=O)c1ccc(Cl)c(Cl)c1)N[C@H]1CC[C@H](CCC2=NCCN2)CC1 (stereo not given in full) | CLint | 1.1 |

[P] Cc1ccc(S(=O)(=O)N2c3ccccc3-c3ccccc3C2CC(=O)NCCc2ccc(C3=NCCN3)cc2)cc1 (stereo not given)
[Q] O=C(CC1CCc2ccccc2N1S(=O)(=O)c1ccc(Cl)c(Cl)c1)N[C@H]1CC[C@H](CCC2=NCCN2)CC1 (stereo not given in full)
Could you tell me which of P and Q has the lower CLint reading? Your answer should be the label attached to the chosen record. Q
(Q: 0.6 mL/min/g, P: 1.5 mL/min/g)
